# target: 5-hydroxytryptamine receptor 6 (Homo sapiens) (UniProt P50406)
# Sequence (P50406 whole entry): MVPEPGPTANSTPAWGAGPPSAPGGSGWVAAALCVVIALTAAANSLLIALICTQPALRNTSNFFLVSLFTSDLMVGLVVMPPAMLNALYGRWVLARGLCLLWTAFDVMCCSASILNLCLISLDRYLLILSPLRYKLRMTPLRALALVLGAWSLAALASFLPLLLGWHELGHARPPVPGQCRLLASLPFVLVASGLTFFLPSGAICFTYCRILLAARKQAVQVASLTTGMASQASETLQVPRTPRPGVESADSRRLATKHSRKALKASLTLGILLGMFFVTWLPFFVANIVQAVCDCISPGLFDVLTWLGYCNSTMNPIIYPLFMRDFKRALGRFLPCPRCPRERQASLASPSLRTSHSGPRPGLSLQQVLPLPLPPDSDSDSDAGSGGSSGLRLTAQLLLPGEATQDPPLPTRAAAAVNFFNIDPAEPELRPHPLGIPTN
# test conditions: Compound concentration 10 µM
# Description: PDSP Primary Binding target: HTR6 - Compounds are tested at 10 uM concentration, plate are incubated at room temperature in the dark for 90 minutes. Reaction are stopped by vacuum filtration onto 0.3% polyethyleneimine soaked filter mats using Filtermate harvester. Scintilation cocktail is then melted onto microwave-dried filters on a hot plate and the radio activity is counted in Microbia counter.
Recorded inhibition values for a group of compounds are listed next.
Report the figure in % without appending any unit label.

compound=Cc1nc2sccn2c(=O)c1CCN1CCC(=C(c2ccc(F)cc2)c2ccc(F)cc2)CC1 target="5-hydroxytryptamine receptor 6 (Homo sapiens) (UniProt P50406)" observed_measurement=98.1

Problem: Give inhibition for the following compound: `O=c1ccn([C@@H]2O[C@H](COP(=O)(O)OP(=O)(O)OP(=O)(O)O)[C@@H](O)[C@H]2O)c(=O)[nH]1`
Result: 11.9

Problem: Give inhibition for the following compound: `CNC[C@H](O)c1cccc(O)c1`
Result: 9.39

Problem: Give inhibition for the following compound: CN(C(=O)Cc1ccc(Cl)c(Cl)c1)C(CN1CCCC1)c1cccc(OCC(=O)O)c1 (stereo unspecified)
Result: 0.97

Problem: Give inhibition for the following compound: `COc1cccc([C@H](O)C2CCN(CCc3ccc(F)cc3)CC2)c1OC`
Result: 5.14

Problem: Give inhibition for the following compound: `Cc1nc(-c2ccc(-c3ccc(C(=O)N4CCc5cc6c(cc54)C4(CCN(C)CC4)CO6)cc3)c(C)c2)no1`
Result: -6.79

Problem: Give inhibition for the following compound: `CN(C)C(=O)C(CCN1CCC(O)(c2ccc(Cl)cc2)CC1)(c1ccccc1)c1ccccc1`
Result: 14.9

----------
# target: UniProt:P35367
# Sequence (P35367 whole entry): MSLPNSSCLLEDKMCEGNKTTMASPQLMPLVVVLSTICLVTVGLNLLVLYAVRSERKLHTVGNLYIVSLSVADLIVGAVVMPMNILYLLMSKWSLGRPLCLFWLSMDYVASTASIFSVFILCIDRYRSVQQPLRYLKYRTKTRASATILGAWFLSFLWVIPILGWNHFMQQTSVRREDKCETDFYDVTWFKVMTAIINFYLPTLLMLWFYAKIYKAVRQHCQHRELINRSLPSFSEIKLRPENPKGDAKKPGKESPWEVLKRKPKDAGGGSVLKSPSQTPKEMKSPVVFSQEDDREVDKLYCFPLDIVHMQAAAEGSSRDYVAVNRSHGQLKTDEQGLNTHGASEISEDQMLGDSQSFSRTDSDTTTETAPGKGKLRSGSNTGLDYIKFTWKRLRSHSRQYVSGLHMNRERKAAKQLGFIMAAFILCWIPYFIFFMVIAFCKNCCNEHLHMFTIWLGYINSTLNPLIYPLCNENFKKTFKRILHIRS
# test conditions: Compound concentration 10 µM
# Description: PDSP Primary Binding target: HRH1 - Compounds are tested at 10 uM concentration, plate are incubated at room temperature in the dark for 90 minutes. Reaction are stopped by vacuum filtration onto 0.3% polyethyleneimine soaked filter mats using Filtermate harvester. Scintilation cocktail is then melted onto microwave-dried filters on a hot plate and the radio activity is counted in Microbia counter.
result type: inhibition (%)
Report the figure in % without appending any unit label.

compound=C[C@@H](NCCCc1cccc(C(F)(F)F)c1)c1cccc2ccccc12 observed_measurement=12.7
compound=O=c1ccn([C@@H]2O[C@H](COP(=O)(O)OP(=O)(O)OP(=O)(O)O)[C@@H](O)[C@H]2O)c(=O)[nH]1 observed_measurement=-0.29
compound=COc1cccc([C@@H](C)NCCCc2ccccc2Cl)c1 observed_measurement=70.6
compound=COc1cc2c(CCNC(C)=O)c[nH]c2cc1Cl observed_measurement=3.86
compound=COc1ccc2cc(S(=O)(=O)N[C@H](CC(=O)N[C@H](Cc3ccc(CN4[C@H](C)CCC[C@@H]4C)cc3)C(=O)N(C)C(C)C)c3ccc4c(c3)OCO4)ccc2c1 observed_measurement=33.1
compound="Cc1c(OCc2cccc(-c3ccc(C(=O)O)cc3)c2)cc2c(c1C)C(=O)C(C1CCCC1)C2 (stereo not drawn)" observed_measurement=-3.97
compound=CCCSc1nc(N[C@@H]2C[C@H]2c2ccc(F)c(F)c2)c2nnn([C@@H]3C[C@H](OCCO)[C@@H](O)[C@H]3O)c2n1 observed_measurement=16.1
compound=O=C(Cc1ccccc1)Nc1nc2ccc(Cl)cc2c2nc(-c3ccco3)nn12 observed_measurement=29.1

Problem: Give inhibition for the following compound: `CCCCCCCCCCCCC/C=C/[C@@H](O)[C@@H](N)COP(=O)(O)O`
Result: 14.3

Problem: Give inhibition for the following compound: `O=C(O)CC1CCC2(CC1)CCN(c1cc(OC(F)(F)F)ccc1Cl)CC2`
Result: 31.1

Problem: Give inhibition for the following compound: `Cc1c(C2=CCN(C(=O)N(C)C(C)C)CC2)nnn1-c1cccnc1F`
Result: 60.9

Problem: Give inhibition for the following compound: `N#Cc1c(N)nc(SCC(N)=O)c(C#N)c1-c1ccc(OCC2CC2)cc1`
Result: 22.6

Problem: Give inhibition for the following compound: `Cc1cc([C@@H](C)Nc2cccc(-c3cc(C)c(C(=O)N[C@@H](C)C(=O)O)c(C)c3)c2)ccc1Cl`
Result: 2.32

----------
# target: Alpha-1A adrenergic receptor (Homo sapiens)
# test conditions: Compound concentration 10 µM; call rule not given here
Hi! Could you answer with just one of these? active, inactive

Examples with answers:
molecule=COc1cc2c(CCNC(C)=O)c[nH]c2cc1Cl class_name=inactive
molecule=N#Cc1c(N)nc(SCC(N)=O)c(C#N)c1-c1ccc(OCC2CC2)cc1 class_name=inactive

Problem: Outcome logged for COc1ccc(C2(O)OC(=O)C(c3ccc4c(c3)OCO4)=C2Cc2cc(OC)c(OC)c(OC)c2)cc1 (centres undefined) in this assay:
Result: inactive

----------
# target: Muscarinic acetylcholine receptor M3 (Homo sapiens)
# test conditions: Compound concentration 10 µM
# Description: PDSP Primary Binding target: CHRM3 - Compounds are tested at 10 uM concentration, plate are incubated at room temperature in the dark for 90 minutes. Reaction are stopped by vacuum filtration onto 0.3% polyethyleneimine soaked filter mats using Filtermate harvester. Scintilation cocktail is then melted onto microwave-dried filters on a hot plate and the radio activity is counted in Microbia counter.
Mark F for inhibition values under 20%, and T for everything at or above.

Examples with answers:
compound="CC(C)NCC(O)COc1ccc(CCOCC2CC2)cc1 (stereo unspecified)" class_name=F
compound=CNc1nc(NCc2ccc(NS(C)(=O)=O)cc2Cl)cc(-c2ccccn2)n1 class_name=F
compound="OCc1cc(C(O)CNCCCCCCOCCCCc2ccccc2)ccc1O (stereo unspecified)" class_name=F
compound=CCc1cc2c(cc1CC)CC(NC[C@H](O)c1ccc(O)c3[nH]c(=O)ccc13)C2 class_name=F
compound="CC(C)NCC(O)c1ccc(N)c(C#N)c1 (stereo unspecified)" class_name=F

Turning now to a further compound:
Problem: Quick check, inhibition >= 20%? `CN1CCN(c2ccc(Nc3c4ccccc4nc4ccccc34)cc2)CC1`
Result: T

----------
# target: UniProt:P30536
# Sequence (P30536 whole entry): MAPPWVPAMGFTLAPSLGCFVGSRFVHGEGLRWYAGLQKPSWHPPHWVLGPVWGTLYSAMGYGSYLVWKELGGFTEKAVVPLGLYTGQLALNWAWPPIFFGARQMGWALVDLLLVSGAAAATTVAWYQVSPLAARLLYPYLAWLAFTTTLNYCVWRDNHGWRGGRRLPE
# test conditions: Compound concentration 10 µM; call rule not given here
Hi! Could you answer with just one of these? True (active), False (inactive)

molecule=O=C(O)CC1CCC2(CC1)CCN(c1cc(OC(F)(F)F)ccc1Cl)CC2 class_name=False
molecule=CCc1cc(C(C)=O)c(O)cc1OCCCCCC(C)(C)c1nn[nH]n1 class_name=False
molecule=CNc1nc(NCc2ccc(NS(C)(=O)=O)cc2Cl)cc(-c2ccccn2)n1 class_name=True
molecule=CCCCCCCCCCCCC/C=C/[C@@H](O)[C@@H](N)COP(=O)(O)O class_name=True

Problem: Outcome logged for `CC(C)(C)NC[C@H](O)COc1nsnc1N1CCOCC1` in this assay:
Result: False

Problem: Outcome logged for `CCCCN1CCC(COC(=O)c2cc(Cl)c(N)c3c2OCCO3)CC1` in this assay:
Result: False

Problem: Outcome logged for `Cc1cc(C)cc(C(=O)N(C)[C@H](Cc2ccc(-c3ccccc3)cc2)C(=O)N[C@@H](Cc2c[nH]c3ccccc23)C(=O)O)c1` in this assay:
Result: False

Problem: Outcome logged for `FC(F)(F)c1c(N2CCC(c3ccccc3)CC2)ccn2c(CC3CC3)nnc12` in this assay:
Result: False

Problem: Outcome logged for `Cc1nc(-c2ccc(-c3ccc(C(=O)N4CCc5cc6c(cc54)C4(CCN(C)CC4)CO6)cc3)c(C)c2)no1` in this assay:
Result: False

Problem: Outcome logged for `Cc1ccccc1N1CCN(S(=O)(=O)C[C@]23CC[C@H](C[C@@H]2NC(=O)[C@@H](N)CCS(C)(=O)=O)C3(C)C)CC1` in this assay:
Result: False

Problem: Outcome logged for CN1CCCC(n2nc(Cc3ccc(Cl)cc3)c3ccccc3c2=O)CC1 (centres undefined) in this assay:
Result: False

----------
# target: UniProt P21917
# Sequence (whole entry): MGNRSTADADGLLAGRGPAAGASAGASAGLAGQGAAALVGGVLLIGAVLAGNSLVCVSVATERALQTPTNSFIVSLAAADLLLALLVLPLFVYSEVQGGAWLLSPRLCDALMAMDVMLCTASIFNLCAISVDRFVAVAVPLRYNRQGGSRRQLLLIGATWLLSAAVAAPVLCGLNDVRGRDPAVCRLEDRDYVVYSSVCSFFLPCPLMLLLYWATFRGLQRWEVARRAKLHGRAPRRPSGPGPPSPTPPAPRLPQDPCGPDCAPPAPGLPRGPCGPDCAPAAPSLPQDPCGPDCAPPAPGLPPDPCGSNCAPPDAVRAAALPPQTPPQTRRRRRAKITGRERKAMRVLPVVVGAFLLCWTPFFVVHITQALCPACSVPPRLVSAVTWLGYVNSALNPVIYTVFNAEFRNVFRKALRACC
# test conditions: Compound concentration 10 µM
# Description: PDSP Primary Binding target: DRD4 - Compounds are tested at 10 uM concentration, plate are incubated at room temperature in the dark for 90 minutes. Reaction are stopped by vacuum filtration onto 0.3% polyethyleneimine soaked filter mats using Filtermate harvester. Scintilation cocktail is then melted onto microwave-dried filters on a hot plate and the radio activity is counted in Microbia counter.
result type: inhibition (%)
Report the figure in % without appending any unit label.

Below, 5 compounds whose answers are already recorded.
compound=Cc1cccc(NC(=O)N[C@@H]2N=C(c3ccccc3)c3ccccc3N(C)C2=O)c1 result_type=inhibition observed_measurement=14.6
compound=CCCn1c(=O)c2[nH]c(-c3cnn(Cc4cccc(C(F)(F)F)c4)c3)nc2n(CC)c1=O result_type=inhibition observed_measurement=0.57
compound=O=C(O)COc1cccc(CN(Cc2ccc(-n3cccn3)cc2)S(=O)(=O)c2cccnc2)c1 result_type=inhibition observed_measurement=4.77
compound=COc1cc2c(CCNC(C)=O)c[nH]c2cc1Cl result_type=inhibition observed_measurement=-6.09
compound=CSc1ccc(C(=O)N[C@@H]2CCCC[C@@H]2NC(=O)CNC(=O)c2cc(C(F)(F)F)ccc2NC(=O)NC(C)C)cc1 result_type=inhibition observed_measurement=3.27

Kindly review the next compound as well.
Problem: Give inhibition for the following compound: `Cc1c(C(=O)NC2CCCCC2)sc2nc3ccc(N)cc3n12`
Result: 38.1

----------
# target: Delta-type opioid receptor (Homo sapiens) (UniProt P41143)
# Sequence (P41143 whole entry): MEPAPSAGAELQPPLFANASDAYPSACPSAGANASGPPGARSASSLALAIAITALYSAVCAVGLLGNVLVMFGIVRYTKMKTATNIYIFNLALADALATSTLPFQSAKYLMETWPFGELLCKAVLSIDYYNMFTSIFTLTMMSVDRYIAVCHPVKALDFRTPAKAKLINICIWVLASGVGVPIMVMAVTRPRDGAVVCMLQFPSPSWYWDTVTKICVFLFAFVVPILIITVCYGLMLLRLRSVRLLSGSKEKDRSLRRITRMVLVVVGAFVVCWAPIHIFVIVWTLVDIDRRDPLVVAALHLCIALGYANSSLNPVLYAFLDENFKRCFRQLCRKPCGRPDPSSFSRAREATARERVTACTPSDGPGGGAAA
# test conditions: Compound concentration 10 µM; call rule not given here
Hi! Could you answer with just one of these? active, inactive

Examples with answers:
compound=Cc1cccc(NC(=O)N[C@@H]2N=C(c3ccccc3)c3ccccc3N(C)C2=O)c1 target="Delta-type opioid receptor (Homo sapiens) (UniProt P41143)" class_name=inactive
compound=O=C(O)CC1CCC2(CC1)CCN(c1cc(OC(F)(F)F)ccc1Cl)CC2 target="Delta-type opioid receptor (Homo sapiens) (UniProt P41143)" class_name=inactive
compound=CN1CC(=O)N=C1NC(=O)Nc1cccc(Cl)c1 target="Delta-type opioid receptor (Homo sapiens) (UniProt P41143)" class_name=inactive
compound=Oc1ccc2c3c1O[C@H]1c4[nH]c5c(c4C[C@@]4(O)[C@@H](C2)N(CC2CC2)CC[C@]314)C[C@@]1(O)[C@H]2Cc3ccc(O)c4c3[C@@]1(CCN2CC1CC1)[C@H]5O4 target="Delta-type opioid receptor (Homo sapiens) (UniProt P41143)" class_name=active

Problem: Outcome logged for CN1CCCC(n2nc(Cc3ccc(Cl)cc3)c3ccccc3c2=O)CC1 (centres undefined) in this assay:
Result: inactive

Problem: Outcome logged for `CCCCN1CCC(COC(=O)c2cc(Cl)c(N)c3c2OCCO3)CC1` in this assay:
Result: inactive

Problem: Outcome logged for `OC[C@H]1O[C@@H](n2cnc3c(NC4CCCC4)ncnc32)[C@H](O)[C@@H]1O` in this assay:
Result: inactive

Problem: Outcome logged for `CC1=C2C[C@H]3[C@@H](CC=C4C[C@@H](O)CC[C@@]43C)[C@@H]2CC[C@]12O[C@@H]1C[C@H](C)CN[C@H]1[C@H]2C` in this assay:
Result: inactive

Problem: Outcome logged for `CCCn1c(=O)c2nc(C34CC5CC(CC3C5)C4)[nH]c2n(CCC)c1=O` in this assay:
Result: inactive

Problem: Outcome logged for `CCCn1c(=O)c2[nH]c(-c3cnn(Cc4cccc(C(F)(F)F)c4)c3)nc2n(CC)c1=O` in this assay:
Result: inactive

Problem: Outcome logged for `Cc1cc(C)c(N)c(C#Cc2cccc(F)c2)n1` in this assay:
Result: inactive

Problem: Outcome logged for `CN(C)C(=O)N[C@H]1CC[C@H](CCN2CCN(c3cccc(Cl)c3Cl)CC2)CC1` in this assay:
Result: inactive
